- Subject of test: A/Michigan/45/2015 (H1N1) HA (Influenza A virus A/Michigan/45/2015 …, UniProt A0A1J0CXU0, strain)
- Method: BLI
- Condition context: both partners purified
Reported metric: binding result

HB31 Fab (Fab, V domains shown) VH: EVQLLESGGGLVQPGGSLRLSCTVSGFTSSNYDMSWVRQAPGKGLEWVSGISGTGRDTYYADSVKGRFTISRDNSKNTLSLQMNSLRADDTAVYFCARDRPVLRYFDWQPYGLDVWGKGTTVTVSS VL: QSALTQPPSASGSPGQSVTISCTGTSSDVGGYNYVSWYQQYPSKAPKLMIYEVSKRPSGVPDRFSGSKSGNTASLTVSGLQAEDEADYYCNSYAGSNLYVFGTGTKVTVL
binds

Reference source for all entries: paper doi:10.1101/2025.11.06.687086
